System: S. Aureus Smith
Assay notes: In vitro antibacterial activity, MIC (modified Autotiter method)
Type: cell-based, Staphylococcus aureus
Particulars: Staphylococcus aureus, 20 h, 18-20 hours at 37° C.; read-out: MIC S. Aureus Smith
Binarize MIC at 1 µg/mL; below is TRUE, at or above is FALSE.

Consider the molecule CC(CCCCCCCCC[n+]1ccc(N)cc1)[n+]1ccc(N)cc1 (stereo not shown) [VI, reference compound] . Is its MIC strictly less than 1 µg/mL? FALSE

MIC strictly < 1 µg/mL for this molecule? "CCCCCCCNc1cc[n+](CCCCCCCCC[n+]2ccc(NCCCCCCC)cc2)cc1" TRUE

Lab note: MIC threshold 1 µg/mL. Does this molecule come in strictly under it? "CCCCCCNc1cc[n+](CCCCCCCCCCCC[n+]2ccc(NCCCCCC)cc2)cc1" TRUE

# strict comparison: is reported MIC < 1 µg/mL? input = "c1c[n+](CCCCCCCC[n+]2ccc(NC3CCCCC3)cc2)ccc1NC1CCCCC1" FALSE

Please state whether MIC is below 1 µg/mL for "CCCCCCNc1cc[n+](CCCCCCCCCC[n+]2ccc(NCCCCCC)cc2)cc1" TRUE

is_below(MIC, 1 µg/mL) for Clc1ccc(Nc2cc[n+](CCCCCC[n+]3ccc(Nc4ccc(Cl)cc4)cc3)cc2)cc1 [Example 77B] ? FALSE

MIC strictly < 1 µg/mL for this molecule? "c1c[n+](CCCCCC[n+]2ccc(NC3CCCCC3)cc2)ccc1NC1CCCCC1" FALSE

MIC strictly < 1 µg/mL for this molecule? "c1c[n+](CCCCCCCCCC[n+]2ccc(NC3CCCCC3)cc2)ccc1NC1CCCCC1" TRUE

Criterion: MIC strictly below 1 µg/mL. Is it met by CCCCC(CC)CNc1cc[n+](CCCCCCC[n+]2ccc(NCC(CC)CCCC)cc2)cc1 (stereo not shown) ? TRUE

Dear colleague, could you confirm whether MIC of "CCCCCCCCCNc1cc[n+](CCCCCCC[n+]2ccc(NCCCCCCCCC)cc2)cc1" falls below 1 µg/mL? Thanks. TRUE

Is 1 µg/mL strictly greater than the molecule's reported MIC? molecule: "CCCCCCCNc1cc[n+](CCCCCCC[n+]2ccc(NCCCCCCC)cc2)cc1" TRUE

Here's an entry: Fc1ccc(Nc2cc[n+](CCCCCC[n+]3ccc(Nc4ccc(F)cc4)cc3)cc2)cc1 [Example 83B] . Is its MIC below 1 µg/mL? FALSE

Determine whether this molecule shows MIC lower than 1 µg/mL (ties excluded): CCCCC(CC)CNc1cc[n+](CCCCCCCCCCCC[n+]2ccc(NCC(CC)CCCC)cc2)cc1 (stereo not shown) [Example 41C] TRUE

Problem: For the molecule "CCCCCCCNc1cc[n+](CCCCCCCCCC[n+]2ccc(NCCCCCCC)cc2)cc1" , is MIC under 1 µg/mL? TRUE

Does the reported MIC of "CCCCCCCCCCCCNc1cc[n+](CCCCCCCCCCCC[n+]2ccc(NCCCCCCCCCCCC)cc2)cc1" stay below 1 µg/mL? FALSE

Given Clc1ccc(Nc2cc[n+](CCCCCCCCCC[n+]3ccc(Nc4ccc(Cl)cc4)cc3)cc2)cc1 [Example 79B] , is recorded MIC strictly lower than 1 µg/mL? TRUE

# TODO verify MIC < 1 µg/mL strictly for this molecule: "CCCCCCCCCCCCNc1cc[n+](CCCCCCC[n+]2ccc(NCCCCCCCCCCCC)cc2)cc1" FALSE

Answer whether the molecule CCCCC(CC)CNc1cc[n+](CCCCC[n+]2ccc(NCC(CC)CCCC)cc2)cc1 (stereo not shown) has MIC strictly less than 1 µg/mL TRUE

Please determine if Clc1ccc(Nc2cc[n+](CCCCCCCC[n+]3ccc(Nc4ccc(Cl)cc4)cc3)cc2)cc1 [Example 78B] is below 1 µg/mL in terms of MIC. TRUE

Check if MIC falls below 1 µg/mL for Nc1cc[n+](CCCCCC[n+]2ccc(N)cc2)cc1 [IV, reference compound] . FALSE

Check if MIC falls below 1 µg/mL for "CCCCCCCCNc1cc[n+](CCCCCCCCCCCC[n+]2ccc(NCCCCCCCC)cc2)cc1" . TRUE

Record "CCCCCCCNc1cc[n+](CCCCCCCC[n+]2ccc(NCCCCCCC)cc2)cc1" : is its MIC strictly below 1 µg/mL? TRUE

Dear reviewer, please state whether "CCCCCCCNc1cc[n+](CCCCCC[n+]2ccc(NCCCCCCC)cc2)cc1" has MIC strictly beneath 1 µg/mL. TRUE

Record CCCCCCCCNc1cc[n+](CCCCCCCCCC[n+]2ccc(NCCCCCCCC)cc2)cc1 [10A,B] : is its MIC strictly below 1 µg/mL? TRUE

State whether 1 µg/mL exceeds MIC recorded for "CCCCCCCCCCCCNc1cc[n+](CCCCCCCCCC[n+]2ccc(NCCCCCCCCCCCC)cc2)cc1" . FALSE

Is it true that MIC reported for "c1c[n+](CCCC[n+]2ccc(NC3CCCCC3)cc2)ccc1NC1CCCCC1" is less than 1 µg/mL? FALSE

State whether 1 µg/mL exceeds MIC recorded for "CCCCCCCCNc1cc[n+](CCCCCCCC[n+]2ccc(NCCCCCCCC)cc2)cc1" . TRUE
